# measured target: HLA-B*15:01
# assay explanation: IEDB peptide-MHC binding, purified MHC/competitive/fluorescence; filed as Kd, often an IC50 or EC50 that approximates it; bounds were set here for any values at or beyond the usual limits of such assays
# condition info: source organism: Orthomarburgvirus marburgense
measure: pKd
// pKd is dimensionless: -log10 of concentration (M)

With HLA-B*15:01 as the test system, ARHGEYAPF showed pKd of 5.48

---

# measured target: HLA-A*31:01
# assay explanation: IEDB peptide-MHC binding, purified MHC/direct/fluorescence; filed as Kd, often an IC50 or EC50 that approximates it; bounds were set here for any values at or beyond the usual limits of such assays
# condition info: source organism: Vibrio parahaemolyticus
measure: Kd

response.value for EVDEGSDMM (field: Kd) = ≥ 20 µM

---

# measured target: HLA-B*27:05
# assay explanation: IEDB peptide-MHC binding, purified MHC/direct/fluorescence; filed as Kd, often an IC50 or EC50 that approximates it; bounds were set here for any values at or beyond the usual limits of such assays
# condition info: source organism: Lassa virus Josiah
measure: pKd
Just so you know, pKd here is -log10 of the concentration in molar units; reply with that number alone.

Lab note: measured pKd of KQAKAPESK was 6.15

---

# measured target: HLA-A*03:01
# assay explanation: IEDB peptide-MHC binding, purified MHC/direct/fluorescence; filed as Kd, often an IC50 or EC50 that approximates it; bounds were set here for any values at or beyond the usual limits of such assays
# condition info: source organism: Orthohantavirus negraense
pKd: −log10 of the molar value.
measure: pKd

So for RRFTQAIYD , the logged pKd turned out to be ≤ 4.70

---

# measured target: HLA-B*27:03
# assay explanation: IEDB peptide-MHC binding, purified MHC/competitive/fluorescence; filed as Kd, often an IC50 or EC50 that approximates it; bounds were set here for any values at or beyond the usual limits of such assays
# condition info: source organism: Entamoeba histolytica HM-1:IMSS
measure: Kd

For record KVSVGSYFC the listed Kd is ≥ 20 µM

---

# measured target: HLA-A*02:03
# assay explanation: IEDB peptide-MHC binding, purified MHC/competitive/radioactivity; filed as Kd, often an IC50 or EC50 that approximates it; bounds were set here for any values at or beyond the usual limits of such assays
# condition info: source organism: Dengue virus 1 Nauru/West Pac/1974
measure: pKd
Please note pKd is a logarithmic value: minus log10 of concentration in mol/L. Answer with that number alone.

sequence_entry=GLFGKGSLI experimental_value=7.89

# next sequence below
Notebook: AMLDVDLHPA , pKd read as 8.69

---

# measured target: HLA-A*01:01
# assay explanation: IEDB peptide-MHC binding, purified MHC/direct/fluorescence; filed as Kd, often an IC50 or EC50 that approximates it; bounds were set here for any values at or beyond the usual limits of such assays
# condition info: source organism: Giardia lamblia ATCC 50803
pKd: −log10 of the molar value.
The entries below are paired with their reported pKd.

Known results for sequences:
sequence_entry=IPRQWHPFA experimental_value="≤ 4.70"
sequence_entry=MTDVDLNYY experimental_value="≥ 9.00"
sequence_entry=QLKQRDALF experimental_value="≤ 4.70"
sequence_entry=LERIKANIF experimental_value="≤ 4.70"

Continue with the next sequence.
Looking up HSSVAGGLW , I see its pKd listed as 6.23

---

# measured target: HLA-B*27:05
# assay explanation: IEDB peptide-MHC binding, purified MHC/direct/fluorescence; filed as Kd, often an IC50 or EC50 that approximates it; bounds were set here for any values at or beyond the usual limits of such assays
# condition info: source organism: Pseudomonas aeruginosa UCBPP-PA14
measure: Kd

Form field, Kd with HLA-B*27:05, item SPADERAVA : ≥ 20 µM

---

# measured target: HLA-A*02:01
# assay explanation: IEDB peptide-MHC binding, purified MHC/direct/fluorescence; filed as Kd, often an IC50 or EC50 that approximates it; bounds were set here for any values at or beyond the usual limits of such assays
# condition info: source organism: Vibrio vulnificus
Kd values, listed per item

sequence_entry=IEFIEVVRL measured_target=HLA-A*02:01 experimental_value="≥ 20 µM"

Next, consider the following sequence.
Record YQRALHTSI . Reported Kd: ≥ 20 µM

---

# measured target: HLA-A*03:01
# assay explanation: IEDB peptide-MHC binding, purified MHC/direct/fluorescence; filed as Kd, often an IC50 or EC50 that approximates it; bounds were set here for any values at or beyond the usual limits of such assays
# condition info: source organism: Pseudomonas aeruginosa UCBPP-PA14
pKd: −log10 of the molar value.
measure: pKd

sequence_entry=SPADERAVA measure=pKd experimental_value="≤ 4.70"

Let us examine a further case.
Record MVTGGIRRR . Reported pKd: ≤ 4.70

---

# measured target: HLA-A*30:01
# assay explanation: IEDB peptide-MHC binding, purified MHC/direct/fluorescence; filed as Kd, often an IC50 or EC50 that approximates it; bounds were set here for any values at or beyond the usual limits of such assays
# condition info: source organism: West Nile virus SPU116/89
pKd: −log10 of the molar value.
measure: pKd

Record WMILRAISF . Reported pKd: ≤ 4.70

---

# measured target: HLA-A*02:06
# assay explanation: IEDB peptide-MHC binding, purified MHC/competitive/radioactivity; filed as Kd, often an IC50 or EC50 that approximates it; bounds were set here for any values at or beyond the usual limits of such assays
# condition info: source organism: Dengue virus 4 Dominica/814669/1981
Kd listing for selected sequences.
Respond numerically; units are nM and should not be typed.

sequence_entry=TLLCLIPTV measured_target=HLA-A*02:06 measure=Kd unit_of_measurement=nM experimental_value=3.44

Form: sequence = FTVQADMGCV ; Kd = 110

---

# measured target: HLA-A*01:01
# assay explanation: IEDB peptide-MHC binding, purified MHC/direct/fluorescence; filed as Kd, often an IC50 or EC50 that approximates it; bounds were set here for any values at or beyond the usual limits of such assays
# condition info: source organism: Bacillus anthracis
pKd: −log10 of the molar value.
measure: pKd

Measured pKd (HLA-A*01:01), entry PRFGSCYFL : ≤ 4.70

---

# measured target: HLA-A*01:01
# assay explanation: IEDB peptide-MHC binding, purified MHC/direct/fluorescence; filed as Kd, often an IC50 or EC50 that approximates it; bounds were set here for any values at or beyond the usual limits of such assays
# condition info: source organism: Vibrio cholerae
measure: Kd

Field Kd (entry EGIEGRIAY ) reads ≥ 20 µM

---

# measured target: HLA-A*26:02
# assay explanation: IEDB peptide-MHC binding, purified MHC/direct/fluorescence; filed as Kd, often an IC50 or EC50 that approximates it; bounds were set here for any values at or beyond the usual limits of such assays
# condition info: source organism: Bacillus cereus H3081.97
measure: Kd

Reported Kd for PRFGSCYFL was ≥ 20 µM

---

# measured target: HLA-B*44:02
# assay explanation: IEDB peptide-MHC binding, purified MHC/direct/fluorescence; filed as Kd, often an IC50 or EC50 that approximates it; bounds were set here for any values at or beyond the usual limits of such assays
# condition info: source organism: Influenza A virus (A/Viet Nam/HN/2004(H5N1))
pKd: −log10 of the molar value.
measure: pKd

The recorded pKd with HLA-B*44:02 for ERNEQGQTL was ≤ 4.70

---

# measured target: HLA-A*26:01
# assay explanation: IEDB peptide-MHC binding, purified MHC/competitive/radioactivity; filed as Kd, often an IC50 or EC50 that approximates it; bounds were set here for any values at or beyond the usual limits of such assays
# condition info: source organism: Mammarenavirus whitewaterense
measure: Kd

response.value for KYPNLNDLK (field: Kd) = ≥ 77.9 µM

---

# measured target: HLA-B*58:01
# assay explanation: IEDB peptide-MHC binding, purified MHC/direct/fluorescence; filed as Kd, often an IC50 or EC50 that approximates it; bounds were set here for any values at or beyond the usual limits of such assays
# condition info: source organism: Vibrio cholerae
pKd: −log10 of the molar value.
measure: pKd

Per the records, this sequence ( EGIEGRIAY ) has pKd equal to ≤ 4.70

---

# measured target: HLA-A*68:01
# assay explanation: IEDB peptide-MHC binding, purified MHC/competitive/radioactivity; filed as Kd, often an IC50 or EC50 that approximates it; bounds were set here for any values at or beyond the usual limits of such assays
# condition info: source organism: Hepacivirus hominis
measure: Kd

Record summary for RNWAHSSL : reported Kd = ≥ 87.9 µM

---

# measured target: HLA-B*57:01
# assay explanation: IEDB peptide-MHC binding, purified MHC/competitive/radioactivity; filed as Kd, often an IC50 or EC50 that approximates it; bounds were set here for any values at or beyond the usual limits of such assays
# condition info: source organism: Dengue virus 3 Martinique/1243/1999
measure: Kd
Please answer in the form of a number followed by its unit of measurement.

sequence_entry=QSSSMRKTDW measure=Kd experimental_value="151 nM"
sequence_entry=GTSADLTVEK measure=Kd experimental_value="3510 nM"

Continue with the sequence presented below.
# Kd (sequence: RTSWALCEAL ) is 1710 nM
